- METHOD SUMMARY: polyglutamine aggregate formation blockers (AID 1604)
- STATED CONDITIONS: polyglutamine-induced protein aggregation inhibition assay; stronger effect = higher value; tested at 2.5 µM
Param threshold (60%) applies to inhibition of aggregation; output yes (1) when value >= threshold, no (0) when value < threshold.

Check this molecule for inhibition of aggregation at or above 60%: "O=C1c2c(O)cccc2Cc2cccc(O)c21"
no (0)

Check this molecule for inhibition of aggregation at or above 60%: CCCCC(CC)CN=C(N)NC(N)=NCCCCCCN=C(N)NC(N)=NCC(CC)CCCC (stereo unspecified)
yes (1)

Check this molecule for inhibition of aggregation at or above 60%: CCN(CC)CCOC(=O)C(Cc1cccc2ccccc12)CC1CCCO1 (stereo unspecified)
no (0)

Check this molecule for inhibition of aggregation at or above 60%: "CC1=C(C(=O)O)N2C(=O)[C@@H](NC(=O)[C@H](N)C3=CCC=CC3)[C@H]2SC1"
yes (1)

Check this molecule for inhibition of aggregation at or above 60%: "Cc1ccsc1/C=C/C1=NCCCN1C"
no (0)

Check this molecule for inhibition of aggregation at or above 60%: "COc1ccc2c(c1)c(CC(=O)OCC(=O)O)c(C)n2C(=O)c1ccc(Cl)cc1"
yes (1)

Check this molecule for inhibition of aggregation at or above 60%: "COc1cc(C(=O)NCc2ccc(OCCN(C)C)cc2)cc(OC)c1OC"
yes (1)

Check this molecule for inhibition of aggregation at or above 60%: "COc1c2occc2c(OC)c2c(=O)cc(C)oc12"
yes (1)

Check this molecule for inhibition of aggregation at or above 60%: "CC(=O)Oc1cccc(O)c1"
no (0)

Check this molecule for inhibition of aggregation at or above 60%: "NC(=O)c1ncn([C@@H]2O[C@H](CO)[C@@H](O)[C@H]2O)n1"
no (0)

Check this molecule for inhibition of aggregation at or above 60%: "CCN(CC)CCNC(=O)c1cc(Br)c(N)cc1OC"
no (0)

Data origin, for the record: PubChem BioAssay
